Tested on: rat CYP2B1, gene 24300
EXPERIMENT_SUMMARY: NVS_ADME_rCYP2B1: NovaScreen (NVS) CYP450-related Enzyme Activity (ADME) Assay for rat CYP2B1 (AID 2283117)
Activity calls are given as the source filed them. Rule for the calls: active = hit-call score of the fitted dose curve at least 0.9, where 1 is the maximum; inconclusive = response in the unintended direction; inactive = score below 0.9.
API: response.call in yes (1) (active), no (0) (inactive)

Example cases with answers are listed next.
[[record]]
compound = "Oc1ccc(C(c2ccc(O)cc2)C(Cl)(Cl)Cl)cc1"
measured_target = "rat CYP2B1, gene 24300"
label_value = "yes (1)"

[[record]]
compound = "CCCCCCCCCCCCCC[P+](CCCC)(CCCC)CCCC"
measured_target = "rat CYP2B1, gene 24300"
label_value = "yes (1)"

[[record]]
compound = "Cc1cc(O)cc(C)c1Cl"
measured_target = "rat CYP2B1, gene 24300"
label_value = "yes (1)"


Assay result, entry NC(=NCCCCCCN=C(N)/N=C(\N)Nc1ccc(Cl)cc1)/N=C(\N)Nc1ccc(Cl)cc1 — outcome?
yes (1)

Answer briefly: the call reported for C[C@]12CC[C@@H]3c4ccc(O)cc4CC[C@H]3[C@@H]1CC[C@@H]2O in this assay.
yes (1)

Tell me the assay call for BrC1CCC(Br)C(Br)CCC(Br)C(Br)CCC1Br (centres undefined) please.
no (0)

What outcome does the record of this test show for CCCCOC(=O)C(C)Oc1ccc(Oc2ccc(C(F)(F)F)cn2)cc1 (centres undefined) ?
no (0)

GET /call?item= CC(=O)O[C@]1(C(C)=O)CC[C@H]2[C@@H]3C=C(Cl)C4=CC(=O)[C@@H]5C[C@@H]5[C@]4(C)[C@H]3CC[C@@]21C returns the recorded outcome of this test.
no (0)

Hey, what did the test say about CC(=O)[C@H]1CC[C@H]2[C@@H]3CCC4=CC(=O)CC[C@]4(C)[C@H]3CC[C@]12C ?
no (0)

====

MEASURED_TARGET: human Retinoic Acid Receptor gamma (RARg), RARG (gene 5916) (UniProt P13631)
Sequence (P13631 whole entry, looked up): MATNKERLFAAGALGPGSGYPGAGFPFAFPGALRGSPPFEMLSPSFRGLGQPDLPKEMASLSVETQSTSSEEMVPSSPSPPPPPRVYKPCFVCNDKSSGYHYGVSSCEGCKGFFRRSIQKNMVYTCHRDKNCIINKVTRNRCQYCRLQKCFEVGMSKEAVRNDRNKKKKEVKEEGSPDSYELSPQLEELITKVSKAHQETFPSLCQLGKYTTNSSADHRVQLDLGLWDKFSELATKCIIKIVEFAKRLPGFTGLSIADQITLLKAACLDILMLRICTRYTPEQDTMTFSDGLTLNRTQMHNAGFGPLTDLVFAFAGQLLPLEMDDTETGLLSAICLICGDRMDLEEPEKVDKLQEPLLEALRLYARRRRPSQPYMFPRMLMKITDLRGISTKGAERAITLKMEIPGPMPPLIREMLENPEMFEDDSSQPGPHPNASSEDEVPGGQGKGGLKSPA
EXPERIMENT_SUMMARY: ATG_RARg_TRANS: Attagene TRANS-FACTORIAL HepG2 Assay for human Retinoic Acid Receptor gamma (RARg) (AID 2283009)
Records with an inconclusive call do not appear. The source made the active and inactive calls. Rule for the calls: active = hit-call score of the fitted dose curve at least 0.9, where 1 is the maximum; inconclusive = response in the unintended direction; inactive = score below 0.9.
MEASURED_PROPERTY: outcome

[[record]]
compound = "O=S(=O)(c1ccccc1)c1ccccc1"
result = "inactive"

[[record]]
compound = "CCOP(=O)(OCC)OCC"
result = "inactive"

[[record]]
compound = "C=C(Cl)CCl"
result = "inactive"

[[record]]
compound = "COC(=O)c1ccccc1S(=O)(=O)NC(=O)Nc1nc(C)cc(C)n1"
result = "inactive"

[[record]]
compound = "ClC1=C(Cl)[C@]2(Cl)[C@@H]3[C@@H](Cl)[C@H](Cl)C[C@@H]3[C@@]1(Cl)C2(Cl)Cl"
result = "inactive"

[[record]]
compound = "CN(C)CCC#N"
result = "inactive"

[[record]]
compound = "CN1C(=O)CCS(=O)(=O)C1c1ccc(Cl)cc1 (stereo not given)"
result = "inactive"

[[record]]
compound = "O=C(NC(=O)c1c(F)cccc1F)Nc1ccc(Oc2ccc(C(F)(F)F)cc2Cl)cc1F"
result = "inactive"

[[record]]
compound = "O=C(NCNC(=O)NC1C(=O)NC(=O)N1CO)NC1C(=O)NC(=O)N1CO (stereo not given)"
result = "inactive"


Please find the next compound below.
For the compound Oc1cc(Cl)ccc1Cl , report outcome.
inactive
